Literature survey of IC50 (system: 15-hydroxyprostaglandin dehydrogenase [NAD(+)] (Homo sapiens, UniProt P15428)).
Numbers only, in nM.

Field: example entries. Status: answers known.
{"molecule": "Nc1cc(/C=C2\\SC(=O)NC2=O)ccc1OCCC1CCCCC1", "measured-quantity": "IC50", "readout-value": 286}
{"molecule": "O=C1NC(=O)/C(=C/c2ccc(OCCC3CCCCC3)cc2C(F)(F)F)S1", "measured-quantity": "IC50", "readout-value": 136}
{"molecule": "CCOc1ccc(/C=C2\\SC(=O)NC2=O)cc1", "measured-quantity": "IC50", "readout-value": 5820}
{"molecule": "O=C(CCC1CCCC1)Oc1ccc(/C=C2\\SC(=O)NC2=O)cc1Br", "measured-quantity": "IC50", "readout-value": 15.8}
{"molecule": "COc1cc(/C=C2\\SC(=O)NC2=O)cc(OC)c1OCCC1CCCCC1", "measured-quantity": "IC50", "readout-value": 94.5}
{"molecule": "CC(C)OCCOc1ccc(/C=C2\\SC(=O)NC2=O)cc1Cl", "measured-quantity": "IC50", "readout-value": 2740}

Provide IC50 values for the following items, in order.
1. O=C1NC(=O)C(Cc2ccc(OCC3CCCCC3)cc2)S1 (centres unmarked)
2. O=C1NC(=O)/C(=C/c2ccc(OCCN3CCOCC3)cc2)S1

1. 4060
2. 515

Give me IC50 for each of these molecules, listed below.
1. O=C1NC(=O)/C(=C/c2cccc(OCCC3CCCC3)c2Cl)S1
2. COc1cc(/C=C2\SC(=O)NC2=O)ccc1OC(=O)C1CCCCC1
3. O=C1NC(=O)/C(=C/c2ccc(OCc3ccccc3)cc2)S1
4. O=C1NC(=O)/C(=C/c2cccc(OCCCCC3CCCCC3)c2Cl)S1
5. COc1ccc(-n2ncc(C(=O)N3CCN(C)CC3)c2C)cc1
6. O=C1NC(=O)/C(=C/c2ccc(OCCc3ccccc3)c(Cl)c2)S1
7. N#C/C(=C\c1ccccc1)c1nn(-c2ccccc2)c(N)c1C#N

1. 154
2. 242
3. 1040
4. 94.5
5. 10000
6. 19.8
7. 50000

Please give IC50 for each item listed below.
1. O=C1NC(=O)/C(=C/c2ccc(OCCc3cccs3)cc2)S1
2. O=C1NC(=O)/C(=C/c2cccc(OCCCc3ccccc3)c2Cl)S1
3. O=C1NC(=O)/C(=C/c2ccc(OCCCC3CCCCC3)c(Cl)c2)S1
4. COc1ccc(COc2ccc(/C=C3\SC(=O)NC3=O)cc2)cc1
5. O=C1NC(=O)/C(=C/c2cccc(OCCCC3CCCCC3)c2Cl)S1
6. O=C1NC(=O)C(Cc2ccc(OCC3CCCC3)cc2)S1 (centres unmarked)
7. O=C1NC(=O)/C(=C/c2cccc(OCc3ccc([N+](=O)[O-])cc3)c2Cl)S1
8. O=C1NC(=O)/C(=C/c2ccc(OCc3ccccc3)cc2Cl)S1

[95.9, 44.9, 10.3, 728, 59, 205, 11700, 487]
